Type: in vivo, human
Conditions: male, human, plasma, Cmax, LS mean, amenamevir 400 mg with ritonavir 600 mg, n = 24
Reported endpoint: Cmax (µg/mL)
The response must be a number in µg/mL with no trailing unit.

Entry Cc1cccc(C)c1N(CC(=O)Nc1ccc(-c2ncon2)cc1)C(=O)C1CCS(=O)(=O)CC1 [amenamevir] : reported Cmax = ? 2.52

###

Type: in vivo, human
Settings: male, human, plasma, AUC0‐∞, LS mean, amenamevir 400 mg with ritonavir 600 mg, n = 24
Reported endpoint: AUC (ng·h/mL)
Your answer should be a plain number; it is taken to be in ng·h/mL.

I have this compound here, Cc1cccc(C)c1N(CC(=O)Nc1ccc(-c2ncon2)cc1)C(=O)C1CCS(=O)(=O)CC1 [amenamevir] , and I need its recorded AUC. 60200

###

Type: in vivo, human
Settings: male, human, plasma, oral, t1/2, arithmetic mean, Day 12, midazolam 7.5 mg with amenamevir 400 mg (last of 10 daily doses), n = 18
Reported endpoint: half-life (h)
// note: answer is a bare numeric in h

Can you look up the measured half-life of Cc1ncc2n1-c1ccc(Cl)cc1C(c1ccccc1F)=NC2 for me? 3.7

###

Assay type: in vivo, human
Conditions: male, human, plasma, po, 400 mg
Reported endpoint: Tmax (h)
Entry rule: numbers only, all in h.

For Cc1cccc(C)c1N(CC(=O)Nc1ccc(-c2ncon2)cc1)C(=O)C1CCS(=O)(=O)CC1 [amenamevir] , what is its reported Tmax? 3

###

Format: in vivo, human
Conditions: male, human, plasma, po, 7.5 mg
Reported endpoint: Tmax
// return the numeric value with its unit appended

What Tmax value was documented for this compound, Cc1ncc2n1-c1ccc(Cl)cc1C(c1ccccc1F)=NC2 ? 30 min

###

Type: in vivo, human
Settings: male, human, plasma, 400 mg, AUC0‐∞, LS mean, amenamevir 400 mg alone, n = 24
Reported endpoint: AUC (ng·h/mL)
Respond with the bare value in ng·h/mL.

What does the record list as AUC for Cc1cccc(C)c1N(CC(=O)Nc1ccc(-c2ncon2)cc1)C(=O)C1CCS(=O)(=O)CC1 [amenamevir] ? 23200
